Attribution: patent US20120023600A1

pKd listing for selected binders.
# Assay system: T1, mouse DKK1 (R&D Systems) (mouse, UniProt O54908 32-272)
# T1 construct: Bought protein
# T1 sequence (looked up): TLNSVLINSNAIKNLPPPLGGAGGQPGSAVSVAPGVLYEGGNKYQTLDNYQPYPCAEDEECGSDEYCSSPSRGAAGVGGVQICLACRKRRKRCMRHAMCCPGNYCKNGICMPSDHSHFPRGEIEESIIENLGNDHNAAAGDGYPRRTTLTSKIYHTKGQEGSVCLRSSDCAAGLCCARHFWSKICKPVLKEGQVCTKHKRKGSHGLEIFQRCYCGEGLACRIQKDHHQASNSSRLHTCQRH
# Protocol notes: SPR (Biacore), DKK1 immobilised on CM5 chip, Fab as analyte
Units for pKd: none; it is -log10 of a concentration expressed in mol/L.

MOR04470 (Fab, V domains shown, Fab with C-terminal FLAG and 6xHis tags) VH: QVQLVESGGGLVQPGGSLRLSCAASGFTFSSYWMSWVRQAPGKGLEWVSVISSDSSSTYYADSVKGRFTISRDNSKNTLYLQMNSLRAEDTAVYYCARHGIDFDHWGQGTLVTVSS VL: DIALTQPASVSGSPGQSITISCTGTSSDLGGYNYVSWYQQHPGKAPKLMIYDVNNRPSGVSNRFSGSKSGNTASLTISGLQAEDEADYYCQSYASGNTKVVFGGGTKLTVLG :: 8.44
MOR04454 (Fab, V domains shown, Fab with C-terminal FLAG and 6xHis tags) VH: QVQLVESGGGLVQPGGSLRLSCAASGFTFSNYGLHWVRQAPGKGLEWVSSISYYGSSTYYADSVKGRFTISRDNSKNTLYLQMNSLRAEDTAVYYCARDGSHMDKPPGYVFAFWGQGTLVTVSS VL: DIQMTQSPSSLSASVGDRVTITCRASQGIKNYLNWYQQKPGKAPKLLIGAASSLQSGVPSRFSGSGSGTDFTLTISSLQPEDFATYYCLQYYGMPPTFGQGTKVEIKR :: 8.22
MOR04461 (Fab, V domains shown, Fab with C-terminal FLAG and 6xHis tags) VH: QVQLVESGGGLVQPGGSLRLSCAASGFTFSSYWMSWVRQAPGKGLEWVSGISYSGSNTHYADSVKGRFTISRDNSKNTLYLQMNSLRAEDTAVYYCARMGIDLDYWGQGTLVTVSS VL: DIALTQPASVSGSPGQSITISCTGTSSDVGGFNYVSWYQQHPGKAPKLMIHDGSNRPSGVSNRFSGSKSGNTASLTISGLQAEDEADYYCSTWDMTVDFVFGGGTKLTVLG :: 7.89

Now, please, on to the next binder.
**Query** Would you mind telling me what pKd value was observed for MOR04516 (Fab, V domains shown, Fab with C-terminal FLAG and 6xHis tags; also called MOR4516) VH: QVQLVQSGAEVKKPGESLKISCKGSGYSFTNYYIGWVRQMPGKGLEWMGIIYPTDSYTNYSPSFQGQVTISADKSISTAYLQWSSLKASDTAMYYCARGIPFRMRGFDYWGQGTLVTVSS VL: DIVLTQPPSVSGAPGQRVTISCSGSSSNIGSSFVNWYQQLPGTAPKLLIGNNSNRPSGVPDRFSGSKSGTSASLAITGLQSEDEADYYCASFDMGSPNVVFGGGTKLTVLG ?
**Result** 8.62
